Molecular target: SARS-CoV-2 spike RBD (Wuhan-Hu-1) (Severe acute respiratory syndrome …, UniProt P0DTC2)
Test: SPR
Would you mind telling me the reported Kd of each entry?
Give bare numbers, in nM.

COVIC-156 (antibody, V domains shown) VH: EVQLVESGGGLIQPGGSLRLSCAASGVTVSSNYMNWVRQAPGKGLEWVSVIYSGGSTYYADSVKGRFTISRDNSKNTLFLQMNSLRAEDSAVYYCARDLGPYGVDVWGQGTTVTVSS VL: DIQLTQSPSFLSASVGDRVTITCWASQGISSYLAWYQQKPGKAPKLLIYAASTLQSGVPSRFSGSGSGTEFTLTISSLQPEDFATYYCQELNSYPLTFGQGTRLEIKR : 0.446

# input for lookup
Input line: If you can, please state the reported Kd value of COVIC-367 (antibody, V domains shown) VH: EVQLVESGGGLVQPGRSLRLSCAASGFTFDDYAMHWVRQAPGKGLEWVSGVSWNSGTIGYADSVKGRFIISRDNAKNSLYLQMRSLRAEDTALYYCAKDVSVYRFREQSYGMDVWGQGTTVTVLS VL: QSALTQSASVSGSPGQSITISCTGTSSDIGGYNFVSWYQQHPGKAPKLMIYEVTTRPSGVSNRFSGSKSGNTASLTISGLQAEDEADYYCSSYTSSSLVVFGGGTKLALLG .
Output line: 0.0301
